Source: paper PMC8802806

System: HeLa cells
Assay: Cell antiproliferative activity assay (CCK8)
Type: cell-based, human
Conditions: Homo sapiens; HELA 2000cells/well; 2000 nM; Repeat2; read-out: Inhibition (%) Repeat2
Method: Cell antiproliferative activity was evaluated by the Cell Counting Kit-8 (CCK8, DOJINDO, Japan) assay. The cells were seeded at a density of 2,000 cells per well into 96-well microplate in 100 μl of growth medium. Cells were incubated at 37°C and 5% CO2 overnight. […] The plates were incubated at 37°C for 2 h; after that, the plates were recorded by measuring absorbance at 450 nm with the reference wavelength of 630 nm using an EnVision Multilabel Reader (PerkinElmer). […]
Each entry gets no (0) if its inhibition at 2 µM stays under 7%, and yes (1) if its inhibition at 2 µM is 7% or above.

compound	assigned-class
COCCOc1cc2ncnc(Nc3cccc(-c4cn(-c5ccc(Br)cc5)nn4)c3)c2cc1OCCOC [Compound 4j]	no (0)
COCCOc1cc2ncnc(Nc3cccc(-c4cn(-c5cccc([N+](=O)[O-])c5)nn4)c3)c2cc1OCCOC [Compound 4m]	yes (1)
COCCOc1cc2ncnc(Nc3cccc(-c4cn(Cc5ccccc5I)nn4)c3)c2cc1OCCOC [Compound 4b]	yes (1)
COCCOc1cc2ncnc(Nc3cccc(-c4cn(Cc5cc(Br)cc(Br)c5)nn4)c3)c2cc1OCCOC [Compound 4d]	yes (1)
COCCOc1cc2ncnc(Nc3cccc(-c4cn(Cc5ccccc5)nn4)c3)c2cc1OCCOC [Compound 4a]	no (0)
